Molecular target: Cytochrome P450 1A2 (Homo sapiens) (UniProt P05177)
Sequence (P05177 whole entry, looked up): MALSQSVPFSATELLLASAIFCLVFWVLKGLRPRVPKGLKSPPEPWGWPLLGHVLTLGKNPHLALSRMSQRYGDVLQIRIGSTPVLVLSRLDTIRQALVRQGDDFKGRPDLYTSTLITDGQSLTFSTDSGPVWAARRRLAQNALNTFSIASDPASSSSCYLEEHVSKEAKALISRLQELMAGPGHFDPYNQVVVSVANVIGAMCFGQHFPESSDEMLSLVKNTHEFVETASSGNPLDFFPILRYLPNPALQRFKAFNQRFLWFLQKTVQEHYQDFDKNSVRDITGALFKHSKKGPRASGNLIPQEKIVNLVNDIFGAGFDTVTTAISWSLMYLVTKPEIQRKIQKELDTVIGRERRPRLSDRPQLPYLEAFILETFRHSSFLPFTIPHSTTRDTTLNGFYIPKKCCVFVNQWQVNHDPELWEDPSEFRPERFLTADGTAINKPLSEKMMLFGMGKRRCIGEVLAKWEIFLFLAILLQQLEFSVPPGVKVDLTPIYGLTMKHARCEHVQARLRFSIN
Assay: Cytochrome P450 Family 1 Subfamily A Member 2 (CYP1A2) small molecule antagonists: luciferase reporter qHTS assay (AID 1671199); further: nearly all actives have a fitted effect of over 50% in size
Conditions: P450-Glo CYP1A2 enzyme, luciferin luminescence, 1 h; series mostly up to 115 µM
Inconclusive results are not listed. The source made the active and inactive calls. The call rests on the fitted dose curve; in most records, active means well fitted inhibition curve with a large enough effect in the repeat runs; inconclusive means weak or mixed curves; inactive means no such curve, though single readings can be large or run the other way.
Output constraint: value belongs to active, inactive

>>> grouplabel("CCCCOP(=O)(CCCC)OCCCC")
"active"
>>> grouplabel("COP(=S)(OC)Oc1cc(Cl)c(Br)cc1Cl")
"active"
>>> grouplabel("N#C/C=C/C#N")
"active"
>>> grouplabel("CCN(CC)c1c([N+](=O)[O-])cc(C(F)(F)F)c(N)c1[N+](=O)[O-]")
"active"

Ask: What was the test verdict on `Nc1ccc(Cc2ccc(N)c(Cl)c2)cc1Cl` ?
Reply: active

Ask: What was the test verdict on `CC(=[OH+])/C=C(/C)[O-].CC(=[OH+])/C=C(\C)[O-].CC(=[OH+])/C=C(\C)[O-].[Fe]` ?
Reply: inactive

Ask: What was the test verdict on `CCOP(=S)(OCC)SCCS(=O)(=O)CC` ?
Reply: active

Ask: What was the test verdict on COc1cc(N)c(Cl)cc1C(=O)NC1CN2CCC1CC2 (stereo unspecified) ?
Reply: inactive

Ask: What was the test verdict on COC(=O)N(C(=O)N1COC2(C(=O)OC)Cc3cc(Cl)ccc3C2=N1)c1ccc(OC(F)(F)F)cc1 (stereo unspecified) ?
Reply: inactive

----------
Experiment: qHTS assay to identify small molecule antagonists of the estrogen receptor alpha (ER-alpha) signaling pathway - cell viability counter screen (AID 743074);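 further: HEK293 cells carrying ER-alpha-UAS-bla reporter stimulated with 17beta-estradiol; on the % scale 0 is the no-effect control and ±100 the full control effect; nearly all actives have a fitted effect of over 45% in size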
Settings: ERalpha-bla HEK293 viability, CellTiter-Glo luminescence, 18 h; series mostly up to 69.4 µM
Results filed as inconclusive are left out. Activity calls are given as the source filed them. The call rests on the fitted dose curve.
Output constraint: value belongs to 1 = active, 0 = inactive

Recorded results for 5 molecules are shown here.
>>> grouplabel("CCOC(=O)CC(=O)CCl")
0
>>> grouplabel("CC(=O)C(Cl)(Cl)Cl")
0
>>> grouplabel("c1ccc(Nc2ccc3ccccc3c2)cc1")
0
>>> grouplabel("C1CCC2CCCCC2C1 (centres undefined)")
0
>>> grouplabel("CCCCOCN(C(=O)CCl)c1c(CC)cccc1CC")
0

Here is the next item to consider.
Ask: What was the test verdict on `[Cl][Sb]([Cl])[Cl]` ?
Reply: 0

----------
Target: Bile acid receptor (Homo sapiens)
Test: qHTS assay to identify small molecule antagonists of the farnesoid-X-receptor (FXR) signaling pathway (AID 743217); further: on the % scale 0 is the no-effect control and ±100 the full control effect
Conditions: HEK293T FXR-UAS-bla, beta-lactamase ratio, CDCA-stimulated, 16 h; series mostly up to 62.6 µM
Records with an inconclusive call do not appear. Active and inactive are the calls of the source. The call rests on the fitted dose curve; in most records, active means well fitted inhibition curve with a large enough effect in the signal ratio in the repeat runs (not every such curve was filed as active); inconclusive means weak or mixed curves, or effect the other way; inactive means no such curve, though single readings can be large or run the other way; the % refers to the signal ratio.
Output constraint: value belongs to y for active, n for inactive

Recorded results for 4 compounds are shown here.
>>> grouplabel("CCOC(=O)OC1=C(c2cc(C)ccc2C)C(=O)NC12CCC(OC)CC2 (stereo unspecified)")
"n"
>>> grouplabel("CC(=O)O[C@H]1CC[C@@]2(C)C(=CC[C@@H]3[C@@H]2CC[C@]2(C)C(=O)CC[C@@H]32)C1")
"n"
>>> grouplabel("C1CCC2CCCCC2C1 (stereo unspecified)")
"n"
>>> grouplabel("O=c1ssc(Cl)c1Cl")
"n"

Ask: What was the test verdict on `CC(=O)C(Cl)(Cl)Cl` ?
Reply: n

Ask: What was the test verdict on `CC(C)OC(=O)C(O)(c1ccc(Cl)cc1)c1ccc(Cl)cc1` ?
Reply: n

Ask: What was the test verdict on `CCCCOCN(C(=O)CCl)c1c(CC)cccc1CC` ?
Reply: n

Ask: What was the test verdict on `Fc1cccc(Cl)c1CCl` ?
Reply: n

Ask: What was the test verdict on `O=C(CBr)c1ccc(O)cc1` ?
Reply: n

Ask: What was the test verdict on `N#CNC#N` ?
Reply: n

----------
Experiment: A CellTox Green Cytotoxicity Assay to monitor cytotoxicity in HEK293 cells - 24 hour (AID 1224875); further: nearly all actives have a fitted effect of over 45% in size; further: potency means the concentration at half of the fitted maximal effect
Conditions: CellTox Green fluorescence; series mostly up to 76.8 µM
Results filed as inconclusive are left out. Active and inactive are the calls of the source. Calls follow the shape of the dose curve; as a rule, active = well fitted activation curve with a large enough effect in the repeat runs; inconclusive = weak or mixed curves; inactive = flat fitted curve, though single readings scatter.
quantityName: Potency

Example results:
>>> readoutvalue("CC[C@H]1C[C@@H]2C[C@H]3c4[nH]c5ccc(OC)cc5c4CCN(C2)[C@@H]13")
"inactive"
>>> readoutvalue("COC[C@H](C)N(C(=O)CCl)c1c(C)csc1C")
"inactive"
>>> readoutvalue("CC(=[OH+])/C=C(/C)[O-].CC(=[OH+])/C=C(\\C)[O-].CC(=[OH+])/C=C(\\C)[O-].[Fe]")
"inactive"
>>> readoutvalue("CC(=O)[O-].CC(=O)[O-].[Hg+2]")
"21.9 µM (active)"
>>> readoutvalue("CCc1nn(C)c(C(=O)NCc2ccc(C(C)(C)C)cc2)c1Cl")
"inactive"
>>> readoutvalue("CCN")
"inactive"
>>> readoutvalue("COc1cc(N)c(Cl)cc1C(=O)NC1CN2CCC1CC2 (configuration not stated)")
"inactive"
>>> readoutvalue("N#CSCSC#N")
"54.4 µM (active)"
>>> readoutvalue("COCC(=O)N(c1c(C)cccc1C)[C@H](C)C(=O)OC")
"inactive"
>>> readoutvalue("CN(CCCC(O)c1cccnc1)N=O (configuration not stated)")
"inactive"

Provide Potency for all items below, preserving their order.
1. CS(=O)(=O)c1ccc(C(=O)C2C(=O)CCCC2=O)c([N+](=O)[O-])c1
2. Oc1c(Br)c(Br)c(Br)c(Br)c1Br

Reply:
["44.4 µM (active)", "inactive"]

----------
Test: qHTS RealTime-Glo MT Cell Viability Assay in HEK293 cells - 8 hour (AID 1224887); further: nearly all actives have a fitted effect of over 50% in size
Conditions: RealTime-Glo luminescence; series mostly up to 76.8 µM
Results filed as inconclusive are left out. Calls of active or inactive are those of the source. Calls follow the shape of the dose curve; as a rule, active = well fitted cell-killing curve with a large enough effect in the repeat runs; inconclusive = weak or mixed curves, or effect the other way; inactive = flat fitted curve, though single readings scatter.
Output constraint: value belongs to class 1 (active), class 0 (inactive)

Recorded results for 5 compounds are shown here.
>>> grouplabel("Cc1cccc(OP(=O)(Oc2cccc(C)c2)Oc2cccc(C)c2)c1")
"class 0"
>>> grouplabel("COc1cc(C=O)cc2c1[C@H](COC(N)=O)[C@]1(OC(C)=O)ON2C[C@H]2[C@@H]1N2C(C)=O")
"class 0"
>>> grouplabel("O=[N+]([O-])c1ccc(Oc2ccc(C(F)(F)F)cc2[N+](=O)[O-])cc1")
"class 1"
>>> grouplabel("O=c1oc2ccccc2c(O)c1Cc1c(O)c2ccccc2oc1=O")
"class 0"
>>> grouplabel("N#Cc1ccccc1Cl")
"class 0"

Ask: What was the test verdict on `CC(=O)[O-].CC(=O)[O-].[Hg+2]` ?
Reply: class 1

Ask: What was the test verdict on `CC[C@H]1C[C@@H]2C[C@H]3c4[nH]c5ccc(OC)cc5c4CCN(C2)[C@@H]13` ?
Reply: class 0

Ask: What was the test verdict on `CN(C)CCc1c[nH]c2cccc(O)c12` ?
Reply: class 0

Ask: What was the test verdict on `CC(=O)[O-].[Tl+]` ?
Reply: class 0

Ask: What was the test verdict on `N#Cc1ccccc1N` ?
Reply: class 0

Ask: What was the test verdict on `CCCSP(=O)(OCC)SCCC` ?
Reply: class 0

Ask: What was the test verdict on `Cc1ccc(OP(=O)(Oc2ccccc2)Oc2ccccc2)cc1` ?
Reply: class 0

Ask: What was the test verdict on `ClC1=C(Cl)[C@]2(Cl)[C@@H]3[C@@H](Cl)[C@@H](Cl)C[C@@H]3[C@@]1(Cl)C2(Cl)Cl` ?
Reply: class 0

Ask: What was the test verdict on CNC(C)Cc1ccc2c(c1)OCO2 (stereo unspecified) ?
Reply: class 0

Ask: What was the test verdict on `CCCCCCCCCBr` ?
Reply: class 0

Ask: What was the test verdict on `CCC[CH2][Sn]([CH2]CCC)([CH2]CCC)[O]C(=O)c1ccccc1` ?
Reply: class 1

Ask: What was the test verdict on `CCCCCCCCCC[N+](C)(C)CCCCCCCCCC` ?
Reply: class 1

Ask: What was the test verdict on `Nc1ccccc1C(=O)OC/C=C/c1ccccc1` ?
Reply: class 1

Ask: What was the test verdict on `O=[N+]([O-])c1cc([N+](=O)[O-])c2ccccc2c1` ?
Reply: class 0

Ask: What was the test verdict on `SCc1ccco1` ?
Reply: class 0

Ask: What was the test verdict on `FC(Cl)(Cl)Cl` ?
Reply: class 0

Ask: What was the test verdict on `CN(CCCC(=O)c1cccnc1)N=O` ?
Reply: class 0

Ask: What was the test verdict on `Nc1ccc([N+](=O)[O-])cc1Cl` ?
Reply: class 0

Ask: What was the test verdict on `CCc1nn(C)c(C(=O)NCc2ccc(C(C)(C)C)cc2)c1Cl` ?
Reply: class 1

Ask: What was the test verdict on `FC(F)(F)c1cccc(C2=CCN(CCc3ccc4ccccc4c3)CC2)c1` ?
Reply: class 0

Ask: What was the test verdict on `C[C@@H](Oc1ccc(Cl)cc1Cl)C(=O)O` ?
Reply: class 0
